# assayed-system: GTP-loaded KRAS G12D (Homo sapiens, UniProt P01116, G12D)
# Sequence (P01116 1-169 isoform P01116-2 G12D): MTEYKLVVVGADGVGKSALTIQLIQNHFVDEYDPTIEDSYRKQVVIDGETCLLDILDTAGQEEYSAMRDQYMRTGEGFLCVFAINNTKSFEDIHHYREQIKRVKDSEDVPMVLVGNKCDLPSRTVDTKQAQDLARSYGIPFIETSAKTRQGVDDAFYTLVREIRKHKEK
# protocol-details: Microscale thermophoresis, GTP-loaded KRAS G12D labeled with NT-647-maleimide
# condition-context: read-out: dissociation constant KD

compound-structure | Kd / µM
NCCC[C@@H](NC(=O)CN1CCCNCC1)C(=O)NC1Cc2ccccc2C1 | 33

* * *

Reported EC50 values are given for each entry in this list.
# Tested on: BJeLR (HRAS G12V)
# protocol-details: Cell viability assay (384-well, Alamar blue)
# Format: cell-based
# condition-context: 48 h, Table 7, 8-point dilution series
measured-endpoint: EC50 (µM)

compound-structure | measured-endpoint | output-unit | reported-measurement
NC1(C(=O)NCCCn2cc(-c3cccc(F)c3)c3c(CN4CCN(CCOc5ccc(Cl)cc5)CC4)cccc32)CCNCC1 | EC50 | µM | 9.71
NC1(C(=O)NCCCn2cc(-c3ccc(OC(F)(F)F)cc3)c3cc(CN4CCN(Cc5c(Cl)cccc5Cl)CC4)ccc32)CCNCC1 | EC50 | µM | 3.95

* * *

# assayed-system: GppNHp-loaded KRASG12D (Homo sapiens, UniProt P01116, G12D)
# Construct: made in house; host or cells: Escherichia coli BL21-Gold (DE3)
# protocol-details: Isothermal titration calorimetry
# Format: binding
# condition-context: ITC, 25° C.; read-out: dissociation constant
pKd: −log10 of the molar value.

compound-structure | assayed-system | pKd
NC1(C(=O)NCCCn2cc(-c3ccc(OC(F)(F)F)cc3)c3cc(CN4CCN(Cc5c(Cl)cccc5Cl)CC4)ccc32)CCNCC1 | GppNHp-loaded KRASG12D (Homo sapiens, UniProt P01116, G12D) | 4.47

* * *

Kd: recorded values
# assayed-system: GppNHp-loaded KRASG12D (Homo sapiens, UniProt P01116, G12D)
# Construct: made in house; host or cells: Escherichia coli BL21-Gold (DE3)
# protocol-details: Microscale thermophoresis, lysine NT-647-labeled GppNHp-loaded KRAS^G12D
# Assay type: binding
# condition-context: MST, GppNHp-bound KRAS^G12D, Table 6; read-out: KD

molecule | relation-symbol | Kd / µM
O=C(NCCCn1cc(-c2c(C(F)(F)F)cccc2C(F)(F)F)c2cc(CN3CCN(Cc4cc(C(F)(F)F)cc(C(F)(F)F)c4)CC3)ccc21)C1CNCCN1 (stereo not shown) [Compound 32MEW56] | > | 10000
COc1cc(COc2ccc(CNC3(C(=O)NCCCn4cc(-c5ccc(OC(F)(F)F)cc5)c5cc(CN6CCN(Cc7c(Cl)cccc7Cl)CC6)ccc54)CCNCC3)cc2OC)cc(OC)c1 [Compound 43MEW63] | = | 26
COc1cc(CN2CCN(Cc3ccc4c(c3)c(-c3ccc(OC)cc3OC)cn4CCCNC(=O)C3CNCCN3)CC2)cc(OC)c1 (stereo not shown) [Compound 36MEW3] | = | 230
CC(C)Oc1ccccc1-c1ccc(CNC2(C(=O)NCCCn3cc(-c4ccc(OC(F)(F)F)cc4)c4cc(CN5CCN(Cc6c(Cl)cccc6Cl)CC5)ccc43)CCNCC2)nc1 [Compound 43MEW73] | = | 24
O=C(NCCCn1cc(-c2ccc(OC(F)(F)F)cc2)c2cc(CN3CCN(Cc4c(Cl)cccc4Cl)CC3)ccc21)C1(NCc2ccc(OCc3cc(C(F)(F)F)cc(C(F)(F)F)c3)cc2)CCNCC1 [Compound 43MEW65] | = | 7.9
COc1ccccc1-c1cn(CCCNC(=O)C2(N)CCNCC2)c2cccc(CN3CCN(CCOc4ccc(Cl)cc4)CC3)c12 [Compound 34MEW45] | = | 1350
O=C(NCCCn1cc(-c2cccc(F)c2)c2c(CN3CCN(CCOc4ccc(Cl)cc4)CC3)cccc21)C1(NCc2ccc(OCc3ccc(F)cc3)c(Cl)c2)CCNCC1 [Compound 35MEW12] | = | 36
